# credit: ChEMBL document CHEMBL4052823

test system: Enterococcus faecium; experiment: Antibacterial activity against glycopeptide-resistant Enterococcus faecium Efm-HS-0847 vanM after 24 hrs by broth microdilution method; type: functional; conditions: Efm-HS-0847, 24 h
For each record, write down the corresponding MIC.
Numbers only, in µg/mL.

- structure.as.smiles: "CCCCCCCCCCNCCN[C@@]1(C)C[C@H](O[C@H]2[C@H](Oc3c4cc5cc3Oc3ccc(cc3Cl)[C@@H](O)[C@@H](NC(=O)[C@@H](CC(C)C)NC)C(=O)N[C@@H](CC(N)=O)C(=O)N[C@H]5C(=O)N[C@H]3C(=O)N[C@H](C(=O)N[C@H](C(=O)O)c5cc(O)c(CNCCO)c(O)c5-c5cc3ccc5O)[C@H](O)c3ccc(c(Cl)c3)O4)O[C@H](CO)[C@@H](O)[C@@H]2O)O[C@@H](C)[C@H]1O"
  observed: 8

Could you now look at the following compound, please?
// MIC value for `CN[C@H](CC(C)C)C(=O)N[C@H]1C(=O)N[C@@H](CC(N)=O)C(=O)N[C@H]2C(=O)N[C@H]3C(=O)N[C@H](C(=O)N[C@H](C(=O)O)c4cc(O)c(CNCCO)c(O)c4-c4cc3ccc4O)[C@H](O)c3ccc(c(Cl)c3)Oc3cc2cc(c3O[C@@H]2O[C@H](CO)[C@@H](O)[C@H](O)[C@H]2O[C@H]2C[C@](C)(NCc3ccc(-c4ccc(C(F)(F)F)cc4)cc3)[C@H](O)[C@H](C)O2)Oc2ccc(cc2Cl)[C@H]1O` : 4

====

For each record, write down the corresponding MRT inf.
assay: MRT (infinity) in CD1 mouse at 5 mg/kg, iv; assay type: ADME, organism-based; conditions: in vivo
Give bare numbers, in h.

// known answers, use as guide
- structure.as.smiles: "CN[C@H](CC(C)C)C(=O)N[C@H]1C(=O)N[C@@H](CC(N)=O)C(=O)N[C@H]2C(=O)N[C@H]3C(=O)N[C@H](C(=O)N[C@H](C(=O)O)c4cc(O)c(CNCCO[C@@H]5O[C@H](CO)[C@H](O)[C@H](O)[C@H]5O)c(O)c4-c4cc3ccc4O)[C@H](O)c3ccc(c(Cl)c3)Oc3cc2cc(c3O[C@@H]2O[C@H](CO)[C@@H](O)[C@H](O)[C@H]2O[C@H]2C[C@](C)(NCc3ccc(-c4ccc(C(F)(F)F)cc4)cc3)[C@H](O)[C@H](C)O2)Oc2ccc(cc2Cl)[C@H]1O"
  measured.metric: "MRT inf"
  observed: 4.21
- structure.as.smiles: "CN[C@H](CC(C)C)C(=O)N[C@H]1C(=O)N[C@@H](CC(N)=O)C(=O)N[C@H]2C(=O)N[C@H]3C(=O)N[C@H](C(=O)N[C@H](C(=O)O)c4cc(O)c(CNCCCNC(=O)[C@H](O)[C@@H](O)[C@H](O)[C@H](O)CO)c(O)c4-c4cc3ccc4O)[C@H](O)c3ccc(c(Cl)c3)Oc3cc2cc(c3O[C@@H]2O[C@H](CO)[C@@H](O)[C@H](O)[C@H]2O[C@H]2C[C@](C)(NCc3ccc(-c4ccc(C(F)(F)F)cc4)cc3)[C@H](O)[C@H](C)O2)Oc2ccc(cc2Cl)[C@H]1O"
  measured.metric: "MRT inf"
  observed: 4.79

Could you now look at the following compound, please?
// MRT inf value for `CN[C@H](CC(C)C)C(=O)N[C@H]1C(=O)N[C@@H](CC(N)=O)C(=O)N[C@H]2C(=O)N[C@H]3C(=O)N[C@H](C(=O)N[C@H](C(=O)O)c4cc(O)cc(O)c4-c4cc3ccc4O)[C@H](O)c3ccc(c(Cl)c3)Oc3cc2cc(c3O[C@@H]2O[C@H](CO)[C@@H](O)[C@H](O)[C@H]2O[C@H]2C[C@](C)(NCc3ccc(-c4ccc(C(F)(F)F)cc4)cc3)[C@H](O)[C@H](C)O2)Oc2ccc(cc2Cl)[C@H]1O` : 6.83

====

For each record, write down the corresponding MRT inf.
assay: MRT (infinity) in CD1 mouse at 5 mg/kg, iv; format: ADME, organism-based; details: in vivo
Numbers only, in h.

- molecule: "CN[C@H](CC(C)C)C(=O)N[C@H]1C(=O)N[C@@H](CC(N)=O)C(=O)N[C@H]2C(=O)N[C@H]3C(=O)N[C@H](C(=O)N[C@H](C(=O)O)c4cc(O)c(CN[C@H]5C(O)O[C@H](CO)[C@H](O)[C@@H]5O)c(O)c4-c4cc3ccc4O)[C@H](O)c3ccc(c(Cl)c3)Oc3cc2cc(c3O[C@@H]2O[C@H](CO)[C@@H](O)[C@H](O)[C@H]2O[C@H]2C[C@](C)(NCc3ccc(-c4ccc(C(F)(F)F)cc4)cc3)[C@H](O)[C@H](C)O2)Oc2ccc(cc2Cl)[C@H]1O (some centres not stated)"
  MRT inf, h: 4.41

// MRT inf value for CN[C@H](CC(C)C)C(=O)N[C@H]1C(=O)N[C@@H](CC(N)=O)C(=O)N[C@H]2C(=O)N[C@H]3C(=O)N[C@H](C(=O)N[C@H](C(=O)O)c4cc(O)c(CN[C@H]5C(O)O[C@H](CO)[C@H](O)[C@@H]5O)c(O)c4-c4cc3ccc4O)[C@H](O)c3ccc(c(Cl)c3)Oc3cc2cc(c3O[C@@H]2O[C@H](CO)[C@@H](O)[C@H](O)[C@H]2O[C@H]2C[C@](C)(NCc3ccc(-c4ccc(Cl)cc4)cc3)[C@H](O)[C@H](C)O2)Oc2ccc(cc2Cl)[C@H]1O (some centres not stated) : 4.18

====

experiment: AUClast in CD1 mouse at 5 mg/kg, iv; format: ADME, organism-based; set-up: dose 5 mg/kg, route intravenous, time 0 - last; details: in vivo
measured.metric: AUC(0-t) (ng·h/mL)
Answers are plain numbers, in ng·h/mL.

// AUC(0-t) value for `CN[C@H](CC(C)C)C(=O)N[C@H]1C(=O)N[C@@H](CC(N)=O)C(=O)N[C@H]2C(=O)N[C@H]3C(=O)N[C@H](C(=O)N[C@H](C(=O)O)c4cc(O)c(CNCCCNC(=O)[C@H](O)[C@@H](O)[C@H](O)[C@H](O)CO)c(O)c4-c4cc3ccc4O)[C@H](O)c3ccc(c(Cl)c3)Oc3cc2cc(c3O[C@@H]2O[C@H](CO)[C@@H](O)[C@H](O)[C@H]2O[C@H]2C[C@](C)(NCc3ccc(-c4ccc(C(F)(F)F)cc4)cc3)[C@H](O)[C@H](C)O2)Oc2ccc(cc2Cl)[C@H]1O` : 10700

====

assay: AUClast in CD1 mouse at 5 mg/kg, iv; type: ADME, organism-based; parameters: dose 5 mg/kg, route intravenous, time 0 - last; details: in vivo
For each record, write down the corresponding AUC(0-t).

- compound: "CN[C@H](CC(C)C)C(=O)N[C@H]1C(=O)N[C@@H](CC(N)=O)C(=O)N[C@H]2C(=O)N[C@H]3C(=O)N[C@H](C(=O)N[C@H](C(=O)O)c4cc(O)c(CNCCO[C@@H]5O[C@H](CO)[C@H](O)[C@H](O)[C@H]5O)c(O)c4-c4cc3ccc4O)[C@H](O)c3ccc(c(Cl)c3)Oc3cc2cc(c3O[C@@H]2O[C@H](CO)[C@@H](O)[C@H](O)[C@H]2O[C@H]2C[C@](C)(NCc3ccc(-c4ccc(C(F)(F)F)cc4)cc3)[C@H](O)[C@H](C)O2)Oc2ccc(cc2Cl)[C@H]1O"
  AUC(0-t): "16600 ng·h/mL"
- compound: "CN[C@H](CC(C)C)C(=O)N[C@H]1C(=O)N[C@@H](CC(N)=O)C(=O)N[C@H]2C(=O)N[C@H]3C(=O)N[C@H](C(=O)N[C@H](C(=O)O)c4cc(O)c(CN[C@H]5C(O)O[C@H](CO)[C@H](O)[C@@H]5O)c(O)c4-c4cc3ccc4O)[C@H](O)c3ccc(c(Cl)c3)Oc3cc2cc(c3O[C@@H]2O[C@H](CO)[C@@H](O)[C@H](O)[C@H]2O[C@H]2C[C@](C)(NCc3ccc(-c4ccc(C(F)(F)F)cc4)cc3)[C@H](O)[C@H](C)O2)Oc2ccc(cc2Cl)[C@H]1O (some centres undefined)"
  AUC(0-t): "20100 ng·h/mL"
- compound: "CN[C@H](CC(C)C)C(=O)N[C@H]1C(=O)N[C@@H](CC(N)=O)C(=O)N[C@H]2C(=O)N[C@H]3C(=O)N[C@H](C(=O)N[C@H](C(=O)O)c4cc(O)c(CN[C@H]5C(O)O[C@H](CO)[C@H](O)[C@@H]5O)c(O)c4-c4cc3ccc4O)[C@H](O)c3ccc(c(Cl)c3)Oc3cc2cc(c3O[C@@H]2O[C@H](CO)[C@@H](O)[C@H](O)[C@H]2O[C@H]2C[C@](C)(NCc3ccc(-c4ccc(Cl)cc4)cc3)[C@H](O)[C@H](C)O2)Oc2ccc(cc2Cl)[C@H]1O (some centres undefined)"
  AUC(0-t): "12100 ng·h/mL"

Could you now look at the following compound, please?
// AUC(0-t) value for `CN[C@H](CC(C)C)C(=O)N[C@H]1C(=O)N[C@@H](CC(N)=O)C(=O)N[C@H]2C(=O)N[C@H]3C(=O)N[C@H](C(=O)N[C@H](C(=O)O)c4cc(O)cc(O)c4-c4cc3ccc4O)[C@H](O)c3ccc(c(Cl)c3)Oc3cc2cc(c3O[C@@H]2O[C@H](CO)[C@@H](O)[C@H](O)[C@H]2O[C@H]2C[C@](C)(NCc3ccc(-c4ccc(C(F)(F)F)cc4)cc3)[C@H](O)[C@H](C)O2)Oc2ccc(cc2Cl)[C@H]1O` : 64200 ng·h/mL
